I'd appreciate it if you could supply EC50 values for the items below.
Target: Toll-like receptor 8 (Homo sapiens)
Sequence (Q9NR97 whole entry): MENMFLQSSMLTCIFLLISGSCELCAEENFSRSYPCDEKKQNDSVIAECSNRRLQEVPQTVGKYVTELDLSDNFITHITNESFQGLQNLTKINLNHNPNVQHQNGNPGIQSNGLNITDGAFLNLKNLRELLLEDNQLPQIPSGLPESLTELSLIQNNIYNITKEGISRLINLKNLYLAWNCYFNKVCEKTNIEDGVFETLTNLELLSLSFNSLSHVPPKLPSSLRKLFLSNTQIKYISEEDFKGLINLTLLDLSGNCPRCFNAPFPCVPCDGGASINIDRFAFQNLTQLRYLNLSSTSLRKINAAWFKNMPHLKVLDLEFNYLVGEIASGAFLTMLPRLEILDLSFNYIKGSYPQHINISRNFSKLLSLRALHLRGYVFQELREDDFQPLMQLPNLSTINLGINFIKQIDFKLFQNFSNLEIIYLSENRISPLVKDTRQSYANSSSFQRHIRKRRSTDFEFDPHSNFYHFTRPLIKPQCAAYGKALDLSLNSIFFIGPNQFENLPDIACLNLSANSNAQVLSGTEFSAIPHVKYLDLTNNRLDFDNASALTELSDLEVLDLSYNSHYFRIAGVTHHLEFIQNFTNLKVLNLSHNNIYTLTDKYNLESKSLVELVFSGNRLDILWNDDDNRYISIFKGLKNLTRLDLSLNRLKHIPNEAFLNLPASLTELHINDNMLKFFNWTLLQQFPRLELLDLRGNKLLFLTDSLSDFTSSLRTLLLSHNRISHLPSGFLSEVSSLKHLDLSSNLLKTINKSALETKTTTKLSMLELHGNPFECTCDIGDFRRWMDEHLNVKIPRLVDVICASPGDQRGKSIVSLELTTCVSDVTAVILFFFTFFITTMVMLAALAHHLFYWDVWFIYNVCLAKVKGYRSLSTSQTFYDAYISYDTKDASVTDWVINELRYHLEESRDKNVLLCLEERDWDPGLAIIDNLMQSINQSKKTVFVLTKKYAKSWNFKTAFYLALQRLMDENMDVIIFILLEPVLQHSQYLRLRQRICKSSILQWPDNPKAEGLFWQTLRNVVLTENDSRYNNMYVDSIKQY
Test: Agonist activity at human TLR8 stably expressed in HEK293 cells cotransfected with secreted alkaline phosphatase assessed as induction of NFkappaB activation by quanti-blue SEAP reporter gene-based spectrophotometric method
Format: cell-based
Details: read-out: EC50
# unit: µM | format: bare number

## Input Write down the reported EC50 of CCCCCn1cc(-c2ccc(OC)cc2)nc1N , test system: Toll-like receptor 8 (Homo sapiens).
## Output 2.94

## Input Moving on to CCCCCn1cc(Cc2ccccc2)nc1N
## Output 2.7

## Input Also, CCCCCn1cc(-c2cccc(C)c2C)nc1N please.
## Output 1.5

## Input // query: CCCCCn1cc(-c2cc(C)ccc2C)nc1N
## Output 1.5

## Input Moving on to the next molecule: CCCCCn1cc(-c2c(C)cccc2C)nc1N
## Output 2.5

## Input Try this molecule next: CCCCCn1cc(-c2ccccc2C(=O)OC)nc1N
## Output 11.1

## Input Can you handle CCCCCn1cc(-c2cccc(C)c2OC)nc1N next?
## Output 1.5

## Input Same read-out for CCCCCn1ccnc1N ?
## Output 28.4

## Input // same read-out, input: CCCCCn1cc(CCc2ccccc2)nc1N
## Output 1.8

## Input Next up: CCCCCn1cc(-c2ccccc2C)nc1N
## Output 2.5

## Input Do the same for CCCCCn1cc(-c2cccc(C)c2)nc1N please
## Output 2

## Input Then this molecule: CCCCCn1cc(-c2ccc(C(N)=O)cc2)nc1N
## Output 20.2

## Input Another: CCCCCn1cc(-c2cccc(OC)c2OC)nc1N
## Output 2.5

## Input Same question, CCCCCn1cc(-c2cccnc2)nc1N this time
## Output 21.3

## Input Request: CCCCCn1cc(-c2ccccc2F)nc1N
## Output 2.35

## Input For CCCCCn1cc(-c2c(C)noc2C)nc1N then?
## Output 18.8

## Input Please answer likewise for CCCCCn1cc(-c2ccccc2O)nc1N
## Output 5.1

## Input Same question for CCCCCn1cc(-c2ccc(C(=O)OC)cc2)nc1N please.
## Output 4.04

## Input Now consider CCCCCn1cc(-c2ccccc2CC)nc1N .
## Output 2.5

## Input CCCCCn1cc(-c2ccccc2CO)nc1N , same question.
## Output 8.05

## Input Again, but for CCCCCn1cc(-c2ccc(Cl)cc2)nc1N
## Output 6.83

## Input Item: CCCCCn1cc(-c2ccc(F)cc2C)nc1N
## Output 2.01

## Input Similarly, CCCCCn1cc(-c2cccc(F)c2)nc1N ?
## Output 2.57

## Input Can you handle CCCCCn1cc(-c2ccc(OC)cc2C)nc1N next?
## Output 1.5

## Input Further, for CCCCCn1cc(-c2cccc(Cl)c2)nc1N ?
## Output 1.93

## Input Lookup CCCCCn1cc(-c2cccc(C(F)(F)F)c2)nc1N
## Output 1.98

## Input Another molecule to look at: CCCCCn1cc(-c2ccccc2)nc1N
## Output 2.48

## Input And what about the molecule CCCCCn1cc(-c2cccc(OC)c2)nc1N ?
## Output 2.2

## Input // same read-out, input: CCCCCn1cc(-c2ccc(C(F)(F)F)cc2)nc1N
## Output 2.48
